# ASSAYED_SYSTEM: T1, catalytic domain of human MMP-14 (cdMMP-14) (human, UniProt P50281 114-320)
# T1 construct: range 114-320; Produced active in E. coli periplasm; biotinylated for BLI/ELISA
# MEASUREMENT_NOTES: FRET peptide inhibition assay; KI=IC50/(S/Km+1)
MEASUREMENT_LABEL: Ki (nM)
Express it in nM; write the number only.

For orientation, consider the following solved cases.
anti-MMP-14 Fab 2A6 (Fab, V domains shown, Fab from a synthetic human Fab library, produced in E. coli periplasm; also called Clone 2A6) VH: EVQLVESGGGLVQPGGSLRLSCAASGFNFSSSSIHWVRQAPGKGLEWVASISSSYGYTYYADSVKGRFTISADTSKNTAYLQMNSLRAEDTAVYYCARVVRMLPVRCIPRCIKTTLPLYGMDYWGQGTLVTVSS VL: DIQMTQSPSSLSASVGDRVTITCRASQSVSSAVAWYQQKPGKAPKLLIYSASSLYSGVPSRFSGSRSGTDFTLTISSLQPEDFATYYCQQSSFPFTFGQGTKVEIKR = 430
anti-MMP-14 Fab 2B4 (Fab, V domains shown, Fab from a synthetic human Fab library, produced in E. coli periplasm; also called Clone 2B4) VH: EVQLVESGGGLVQPGGSLRLSCAASGFNLYSSYIHWVRQAPGKGLEWVASIYSSYSSTYYADSVKGRFTISADTSKNTAYLQMNSLRAEDTAVYYCARSDSAVYSVRRMGSSGLAAYAMDYWGQGTLVTVSS VL: DIQMTQSPSSLSASVGDRVTITCRASQSVSSAVAWYQQKPGKAPKLLIYSASSLYSGVPSRFSGSRSGTDFTLTISSLQPEDFATYYCQQYSYGYSSLITFGQGTKVEIKR = 98

// next item, Ki requested
Qu. Requested field: Ki. Item: anti-MMP-14 Fab 2B12 (Fab, V domains shown, Fab from a synthetic human Fab library, produced in E. coli periplasm; also called Clone 2B12) VH: EVQLVESGGGLVQPGGSLRLSCAASGFNIYYSSMHWVRQAPGKGLEWVAYIYSSSSYTYYADSVKGRFTISADTSKNTAYLQMNSLRAEDTAVYYCARDCCSCVFSQSAGITLACVYVMDYWGQGTLVTVSS VL: DIQMTQSPSSLSASVGDRVTITCRASQSVSSAVAWYQQKPGKAPKLLIYSASSLYSGVPSRFSGSRSGTDFTLTISSLQPEDFATYYCQQWGPHYAPITFGQGTKVEIKR
Ans. 120

Reference for the values: patent US20200392251A1
